Target under test: 5-HT2C receptor (Homo sapiens)
Sequence (P28335 33-458): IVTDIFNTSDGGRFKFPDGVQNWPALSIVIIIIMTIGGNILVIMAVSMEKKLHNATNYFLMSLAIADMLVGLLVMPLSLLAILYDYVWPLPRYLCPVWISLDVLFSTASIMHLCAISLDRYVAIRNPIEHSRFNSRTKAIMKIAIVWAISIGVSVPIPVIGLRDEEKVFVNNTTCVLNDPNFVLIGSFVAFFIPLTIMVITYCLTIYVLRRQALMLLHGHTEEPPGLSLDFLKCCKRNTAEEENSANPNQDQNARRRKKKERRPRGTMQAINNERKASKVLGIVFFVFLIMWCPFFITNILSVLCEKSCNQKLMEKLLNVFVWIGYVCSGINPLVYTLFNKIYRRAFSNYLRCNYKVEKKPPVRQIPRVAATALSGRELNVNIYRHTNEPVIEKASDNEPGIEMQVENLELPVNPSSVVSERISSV
Protocol notes: Functional activity, FLIPR calcium assay in CHO cells expressing human 5-HT2C
Assay type: cell-based
Set-up: expressed in transfected cells; host or cells: CHO cells
Procedure: The functional activity of compounds of formula (I) was assayed using a Fluorimetric Imaging Plate reader (FLIPR). CHO cells expressing the human 5-HT2C or human 5-HT2A receptors were counted and plated into standard 96 well microtitre plates on the day before testing to give a confluent monolayer. […] The drug (dissolved in 50 μL of the assay buffer) was added at a rate of 70 μL/sec to each well of the FLIPR 96 well plate during fluorescence measurements. […]
Counter-ions that a name gives are not always drawn.
Observable: log10(EC50) (log10 of the value in µM)
Heads up: the numbers are on a log10 scale; they represent EC50 in µM.

Molecule	Observable	Result value
C[C@H](N)CN1CCc2ccc(-c3cccnc3)cc21 [Example 47]	log10(EC50)	0.55
C[C@H](N)CN1CCc2cc(F)c(C(F)(F)F)cc21 [Example 60, Fumarate]	log10(EC50)	-1.44
C[C@H](N)CN1CCc2c(Cl)cccc21 [Example 38]	log10(EC50)	-0.49
CCSc1cc2c(cc1F)CCN2C[C@H](C)N [Example 31]	log10(EC50)	-2.70

We now examine a further molecule.
Please fill in: log10(EC50) reported for Cc1cccc2c1CCN2C[C@H](C)N [Example 32] = -0.21
